system: morningglory; test: Test B pre/postemergence morningglory; assay type: in vivo, Ipomoea hederacea; details: Postemergence, Rate 62 g/ha; scale 0 to 10, 0 is no effect, 10 is complete control
assay_readout: Morningglory plant response rating

chemical_structure: COc1ccccc1-n1c(=O)on(C(=O)N(c2ccc(F)cc2F)C(C)C)c1=O
quantitative_result: 0
//
chemical_structure: CC(C)N(C(=O)n1oc(=O)n(-c2cccc3c2CCCC3)c1=O)c1ccc(F)cc1
quantitative_result: 3
//
chemical_structure: Cc1cc(C)c(-n2c(=O)on(C(=O)N(c3ccc(Cl)cc3)C(C)C)c2=O)c(C)c1
quantitative_result: 2
//
chemical_structure: Cc1ccc(N(C(=O)n2oc(=O)n(-c3ccccc3C)c2=O)C(C)C)cc1
quantitative_result: 3
//
chemical_structure: COc1ccccc1-n1c(=O)on(C(=O)N(c2ccc(F)cc2)C(C)C)c1=O
quantitative_result: 1
//
chemical_structure: CC(C)N(C(=O)n1oc(=O)n(-c2c(Cl)cccc2Cl)c1=O)c1ccc(F)cc1
quantitative_result: 0
//
chemical_structure: Cc1cccc(C(C)C)c1-n1c(=O)on(C(=O)N(c2ccc(F)cc2)C(C)C)c1=O
quantitative_result: 0
//
chemical_structure: CC(C)N(C(=O)n1oc(=O)n(-c2ccccc2C(F)(F)F)c1=O)c1ccc(F)cc1
quantitative_result: 2

Provenance of the data: patent US6737383B1
